test system: E. coli BAS901 (permeabilized); type: cell-based; details: CLSI broth microdilution, Muller-Hinton broth, 5×10^5 CFU/mL, 24 hr at 37 C, OD600, performed in triplicate
*1 amine or outer side, *2 acyl side, *3 side chain or, on linkers, in order; H or OH if unused. Where a SMILES comes first, the peptide text is derived from it. Bridges are numbered along the chain shown (N, C = ends). [ ]: non-standard residue; d: D form. The star is where a group is joined. CH2C≡CC≡CCH2 = C(C#CC[*:2])#CC[*:1]; X1 = CCCCCCCCCCCCCCCCOC(=O)*; NMeS = CN[C@@H](CO)C(=O)O; Dab = NCC[C@H](N)C(=O)O
Below, each of the compounds is paired with its reported MIC E. coli Δ value.
A number alone suffices; assume µg/mL.

{"COMPOUND": "CCCCCCCCCCCCCCCCOC(=O)N[C@@H](CCN)C(=O)N(C)[C@H]1CC#CC#CC[C@@H](C(N)=O)NC(=O)[C@H](C)NC1=O [Compound 11]", "OUTPUT UNIT": "µg/mL", "OBSERVED VALUE": 4}
{"COMPOUND": "CCCCCCCCCCCCCCCCOC(=O)N[C@@H](CCN)C(=O)N(C)[C@H]1COCC#CC#CCOC[C@@H](C(N)=O)NC(=O)[C@H](C)NC1=O [Compound S8] (X1-[Dab][NMeS]AS-NH2; linker 2-4 via CH2C≡CC≡CCH2)", "OUTPUT UNIT": "µg/mL", "OBSERVED VALUE": 64}
{"COMPOUND": "CCCCCCCCCCCCCCCCOC(=O)N[C@@H](CCN)C(=O)N(C)[C@@H]1CC#CC#CC[C@H](C(N)=O)NC(=O)[C@H](C)NC1=O [Compound 13]", "OUTPUT UNIT": "µg/mL", "OBSERVED VALUE": 32}
{"COMPOUND": "CCCCCCCCCCCCOC(=O)N[C@@H](CCN)C(=O)N(C)[C@@H]1CC#CC#CC[C@H](C(N)=O)NC(=O)[C@H](C)NC1=O [Compound 12]", "OUTPUT UNIT": "µg/mL", "OBSERVED VALUE": 16}
{"COMPOUND": "CCCCCCCCCCCCOC(=O)N[C@@H](CCN)C(=O)N(C)[C@H]1CC#CC#CC[C@@H](C(N)=O)NC(=O)[C@H](C)NC1=O [Compound 10]", "OUTPUT UNIT": "µg/mL", "OBSERVED VALUE": 4}

[in] Entry under review: CCCCCCCCCCCCCCCCOC(=O)N[C@@H](CCN)C(=O)N(C)[C@H]1COCC#CC#CC[C@@H](C(N)=O)NC(=O)[C@H](C)NC1=O [Compound S4] . Reported MIC E. coli Δ?
[out] 64
